# System: HOP-62 NSCLC
# Protocol summary: NCI-60 one-dose screen, 48 h
# Cond: 10 µM unless noted
About 83,000 compounds went through this panel and 20% of them were active in at least one assay; those are over-represented in the sample as a whole. The source made the active and inactive calls. How the source made its calls: active means growth percent below 10; inactive means the rest.
Log the outcome using a class from t = active, f = inactive

// query Can you look up the reported call for `O=C(NNc1ccc(-c2ccccc2)nn1)c1ccc(F)cc1` for me?
// result f

// query Assay result, entry `COc1ccc(C(=O)CSc2nccc(Nc3ccc(C(=O)O)cc3)n2)cc1` — outcome?
// result f

// query I'd appreciate the recorded outcome for `O=C(Nc1ccc(Oc2ccc(F)cc2)c(Cl)c1)c1cccnn1` from this test.
// result f

// query Please indicate how the test categorized `CC(C)(C)c1cc(C(=O)Nc2ccccc2C(=O)NCCN)cc(C(C)(C)C)c1` .
// result f

// query I would be grateful if you could indicate the recorded call for `CC(C)CSc1ncnc2nc[nH]c12` .
// result f

// query Hello, I am checking results. What call was entered for `COc1cc(NN=C(c2ccc(O)cc2)c2ccc(O)cc2)c([N+](=O)[O-])cc1[N+](=O)[O-]` ?
// result t
